The values you see were collected from patent US7429599B2.

- SYSTEM_NAME: His6-JNK2 (Homo sapiens)
- Construct: His6 (N)
- EXPERIMENTAL_DETAILS: JNK2 Assay (c-Jun phosphorylation, 32P-ATP filter plate)
- Type: biochemical
- ASSAY_CONTEXT: c-Jun phosphorylation reduced to 50% of control; GST-c-Jun(1-79), 11 μM ATP; read-out: IC50 value in the JNK2 Assay
READOUT: IC50

# COMPOUND, IC50
measured = [
    ("CN1CCN(CCCSc2ccc(-c3ccnc(Nc4ccc(C(N)=O)cc4)n3)cc2)CC1", "≤ 10 µM"),
]

Looking for the measured IC50 of CN(C)C(=O)c1ccc(Nc2nccc(-c3ccc(SCCCO)cc3)n2)cc1 , can you help?
≤ 1 µM

For the compound CNC(=O)c1ccc(Nc2nccc(-c3ccc(Cl)cc3)n2)cc1 , what IC50 is on record?
≤ 10 µM

###

- SYSTEM_NAME: His6-JNK2 (Homo sapiens, UniProt P45984)
- Construct: His6 (N)
- Sequence (P45984 whole entry): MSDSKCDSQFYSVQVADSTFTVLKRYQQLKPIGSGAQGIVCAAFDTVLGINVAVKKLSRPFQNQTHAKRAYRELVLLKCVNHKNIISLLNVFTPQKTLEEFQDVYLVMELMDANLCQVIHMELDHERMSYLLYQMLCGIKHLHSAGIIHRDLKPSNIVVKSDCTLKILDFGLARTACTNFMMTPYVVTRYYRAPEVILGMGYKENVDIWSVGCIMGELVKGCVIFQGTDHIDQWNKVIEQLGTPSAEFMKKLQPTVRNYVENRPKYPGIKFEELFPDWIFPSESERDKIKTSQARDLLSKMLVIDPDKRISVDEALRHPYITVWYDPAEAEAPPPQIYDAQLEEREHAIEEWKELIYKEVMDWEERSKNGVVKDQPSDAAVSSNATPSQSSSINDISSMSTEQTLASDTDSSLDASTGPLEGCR
- EXPERIMENTAL_DETAILS: JNK2 Assay (c-Jun phosphorylation, 32P-ATP filter plate)
- Type: biochemical
- ASSAY_CONTEXT: c-Jun phosphorylation reduced to 50% of control; GST-c-Jun(1-79), 11 μM ATP; read-out: IC50 value in the JNK2 Assay
READOUT: IC50

Example cases with answers are listed next.
# MOLECULE, IC50
rows = [
    ("CN1CCN(C(=O)c2ccc(Nc3nccc(-c4ccc(Cl)cc4)n3)cc2)CC1", "≤ 1 µM"),
    ("O=C(NCCCCO)c1ccc(Nc2nccc(-c3ccc(Cl)cc3)n2)cc1", "≤ 10 µM"),
    ("NC(=O)c1ccc(Nc2nccc(-c3ccc(S(=O)(=O)CCCO)cc3)n2)cc1", "≤ 1 µM"),
    ("NC(=O)c1ccc(Nc2nccc(-c3ccc4ccccc4c3)n2)cc1", "≤ 10 µM"),
    ("NC(=O)c1ccc(Nc2nccc(-c3ccc(SCCCO)cc3)n2)cc1", "≤ 1 µM"),
]

Identify the measured IC50 of CN(C)C(=O)c1ccc(Nc2nccc(-c3ccc(Cl)cc3)n2)cc1 for His6-JNK2 (Homo sapiens, UniProt P45984).
≤ 10 µM

Notebook entry, His6-JNK2 (Homo sapiens, UniProt P45984) assay: IC50 of O=C(c1ccc(Nc2nccc(-c3ccc(Cl)cc3)n2)cc1)N1CCN(c2ccccn2)CC1 = ?
≤ 10 µM

// fetch His6-JNK2 (Homo sapiens, UniProt P45984) IC50 for O=C(c1ccc(Nc2nccc(-c3ccc(Cl)cc3)n2)cc1)N1CCN(c2cccc(C(F)(F)F)c2)CC1
≤ 10 µM

For His6-JNK2 (Homo sapiens, UniProt P45984), provide IC50 of O=C(c1ccc(Nc2nccc(-c3ccc(Cl)cc3)n2)cc1)N1CCC(N2CCCC2)CC1 please.
≤ 1 µM

Form field - read-out: IC50; system: His6-JNK2 (Homo sapiens, UniProt P45984); submitted item: O=C(NCCc1ccccn1)c1ccc(Nc2nccc(-c3ccc(Cl)cc3)n2)cc1
≤ 10 µM

Record lookup: for His6-JNK2 (Homo sapiens, UniProt P45984), what IC50 belongs to NC(=O)c1ccc(Nc2nccc(-c3ccc(-n4ccnc4)cc3)n2)cc1 ?
≤ 10 µM

Which IC50 is reported with His6-JNK2 (Homo sapiens, UniProt P45984) for this entry: CCN(CC)C(=O)C1CCCN(C(=O)c2ccc(Nc3nccc(-c4ccc(Cl)cc4)n3)cc2)C1 (stereo not shown) ?
≤ 10 µM

Form entry - test system: His6-JNK2 (Homo sapiens, UniProt P45984); read-out: IC50; molecule: CCOC(=O)N1CCN(C(=O)c2ccc(Nc3nccc(-c4ccc(Cl)cc4)n3)cc2)CC1
≤ 1 µM
